All figures here come from ChEMBL document CHEMBL1201862.

Tested on: MOLT-4
assay: NCI tumour cell line growth inhibition, 48 h
Activity calls are given as the source filed them. Rule as the data show it: active = GI50 up to about 1.1 µM and inactive = higher.
Measured GI50, listed per entry for reference.

These solved cases illustrate the format of a correct answer.
What value of GI50 has been recorded for this entry: CCOC(=O)C(NC(=O)c1ccccc1)(c1ccc(S(=O)(=O)Nc2onc(C)c2C)cc1)C(F)(F)F (stereo unspecified) > 100 µM (inactive)

What value of GI50 has been recorded for this entry: COc1ccc(/C(Cl)=C(\C=O)c2ccc(F)cc2)cc1OC 9.91 µM (inactive)

// GI50 lookup, key: CC1(C)C2CCC1(CC(=O)O)C(Cl)C2 (stereo unspecified) > 100 µM (inactive)

GET /values?readout=GI50&item= CON(C)c1nc(N(C)OC)nc(N(C)OC)n1 > 10 µM (inactive)

Requested read-out: GI50. Entry: CCOC(=O)c1oc2ccc(OC)c3c2c1CCC3 26.1 µM (inactive)

Next, consider the following compound.
Need GI50, item Cc1cccc2[s+]snc12 25.8 µM (inactive)

###

Tested on: 786-0
assay: NCI tumour cell line growth inhibition, 48 h
Active and inactive are the calls of the source. Rule as the data show it: active = GI50 up to about 1.1 µM and inactive = higher.
Pick one and only one: active, inactive

Hi, do you know how NC(=O)Cn1c(=O)[nH]c(=O)c2[nH]cnc21 came out in this test? inactive

What call does the record list for CC(=O)OCC(OC(C)=O)C(OC(C)=O)C(OC(C)=O)C(=O)CNn1c(-c2ccccc2Cl)nc2ccccc2c1=O (configuration not stated) ? inactive

I'd appreciate the recorded outcome for CNC1=C/C(=N/C2=CC(=N/C(=C\C#N)C(C)(C)O)/OC2(C)C)OC1(C)C from this test. inactive

Further cases:
How was O=S(=O)(O)c1cc(O)c(/N=N/c2ccc(O)cc2O)c2ccccc12 classified in this test? inactive

I would be grateful if you could indicate the recorded call for COc1ccc(/C=C2\CCC(Cc3ccccc3)(CN(C)C)C2=O)cc1 (configuration not stated) . inactive

###

Tested on: T47D
assay: NCI tumour cell line growth inhibition, 48 h
Active and inactive are the calls of the source. No stated cut-off is given here; in the data, active = GI50 up to about 1.1 µM and inactive = higher. *1 amine or outer side, *2 acyl side, *3 side chain or, on linkers, in order; H or OH if unused. Where a SMILES comes first, the peptide text is derived from it. Bridges are numbered along the chain shown (N, C = ends). Roman numbers before positions name the chains, in order. [ ]: non-standard residue; d: D form. Actinocin(9to1) = Cc1c2oc3c(C)ccc(C(=O)[*:1])c3nc-2c(C(=O)[*:2])c(N)c1=O; Hyp = O=C(O)[CH]1C[CH](O)CN1; NMeV = CN[CH](C(=O)O)C(C)C; Sar = CNCC(=O)O
# output must be one of active, inactive

Name the outcome recorded for Cc1c2oc3c(C)ccc(C(=O)NC4C(=O)NC(C(C)C)C(=O)N5CC(O)CC5C(=O)N(C)CC(=O)N(C)C(C(C)C)C(=O)OC4C)c3nc-2c(C(=O)NC2C(=O)NC(C(C)C)C(=O)N3CC(O)CC3C(=O)N(C)CC(=O)N(C)C(C(C)C)C(=O)OC2C)c(N)c1=O (stereo unspecified) (I: TV[Hyp][Sar][NMeV] / II: TV[Hyp][Sar][NMeV]; ester I:1-I:C, II:1-II:C; linker I:N-II:N via Actinocin(9to1); configuration not given here) in the assay. active

Which result was noted for this compound in the test: COc1ccc(N2C(=O)C3c4[nH]c5cccc(Cl)c5c4C4CCC(C(C)(C)C)CC4C3C2=O)cc1 (stereo unspecified) inactive

# lookup: test call for Cc1ccc(-n2nncc2[Si](C)(C)C)s1 inactive
